# assay_procedure: BHET released, HPLC; higher = more BHET released; extreme values may be limits of the assay
# run_parameters: PET substrate: cryPow; 60 °C; pH 7.5; 24 h
reported_endpoint: BHET released (mM)
All answers are understood in mM, so give the number only.

Record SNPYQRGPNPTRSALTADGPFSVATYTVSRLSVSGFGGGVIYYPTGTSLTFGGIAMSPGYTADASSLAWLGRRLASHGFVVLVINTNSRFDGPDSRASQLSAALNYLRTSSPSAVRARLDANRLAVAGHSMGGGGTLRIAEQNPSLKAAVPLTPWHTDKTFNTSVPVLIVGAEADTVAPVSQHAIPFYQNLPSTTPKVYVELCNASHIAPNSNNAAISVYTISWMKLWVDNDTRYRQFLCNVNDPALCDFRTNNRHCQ [LCC-ICCG] . Reported BHET released: 0

According to the records, this sequence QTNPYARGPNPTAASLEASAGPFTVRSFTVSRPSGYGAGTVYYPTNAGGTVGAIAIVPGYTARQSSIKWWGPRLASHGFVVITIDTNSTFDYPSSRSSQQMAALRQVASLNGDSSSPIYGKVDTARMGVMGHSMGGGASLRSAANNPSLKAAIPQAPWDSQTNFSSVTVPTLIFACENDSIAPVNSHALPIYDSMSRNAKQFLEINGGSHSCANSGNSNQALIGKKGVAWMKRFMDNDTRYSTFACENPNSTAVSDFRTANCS [DuraPETase] displays BHET released of 0.00475

// BHET released lookup, sequence = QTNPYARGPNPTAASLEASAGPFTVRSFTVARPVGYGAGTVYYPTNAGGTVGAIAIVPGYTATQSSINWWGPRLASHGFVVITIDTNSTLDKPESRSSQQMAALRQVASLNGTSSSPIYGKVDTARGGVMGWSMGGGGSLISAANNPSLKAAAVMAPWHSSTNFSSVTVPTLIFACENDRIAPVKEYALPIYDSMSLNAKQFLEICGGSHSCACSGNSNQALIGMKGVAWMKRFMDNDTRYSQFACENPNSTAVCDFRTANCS [HotPETase] , result: 0

Every entry's value here was drawn from the supplement of paper PMC11196671.
